Tested on: multidrug resistant strain of Plasmodium yoelii Nigeriensis
Experiment: Antimalarial activity against multidrug resistant P. yoelii in swiss mice
Format: in vivo
Conditions: i.m., 96 mg/kg, 4 consecutive days (day 0-3), parasitaemia vs vehicle control
RECORDED_ENDPOINT: % Suppression on Day 4 (%)

{"COMPOUND": "C(=CC1COC2(CCCC2)OO1)c1ccc(C2CCCCC2)cc1 (centres unmarked) [Trioxane 7bh]", "RECORDED_ENDPOINT": "% Suppression on Day 4", "NUMERIC_READOUT": 100}
{"COMPOUND": "C=C(c1ccc(C2CCCCC2)cc1)C1COC2(CCC(c3ccccc3)CC2)OO1 (mixture of isomers) [Trioxane 7be]", "RECORDED_ENDPOINT": "% Suppression on Day 4", "NUMERIC_READOUT": 91.6}
{"COMPOUND": "C=C(c1ccc(C2CCCCCCC2)cc1)C1COC2(OO1)C1CC3CC(C1)CC2C3 (centres unmarked) [Trioxane 9d]", "RECORDED_ENDPOINT": "% Suppression on Day 4", "NUMERIC_READOUT": 60.12}
{"COMPOUND": "CCC1(C)OCC(C=Cc2ccc(-c3ccc(Br)cc3)cc2)OO1 (centres unmarked) [Trioxane 7fb]", "RECORDED_ENDPOINT": "% Suppression on Day 4", "NUMERIC_READOUT": 51.41}
{"COMPOUND": "C=C(c1ccc(C2CCCCC2)cc1)C1COC2(OO1)C1CC3CC(C1)CC2C3 (centres unmarked) [Trioxane 9b]", "RECORDED_ENDPOINT": "% Suppression on Day 4", "NUMERIC_READOUT": 82.16}
{"COMPOUND": "C=C(c1ccc(C2CCCCCC2)cc1)C1COC2(CCC(c3ccccc3)CC2)OO1 (centres unmarked) [Trioxane 7cd]", "RECORDED_ENDPOINT": "% Suppression on Day 4", "NUMERIC_READOUT": 58.17}
{"COMPOUND": "C=C(c1ccc(C2CCCCC2)cc1)C1COC2(CCC(C(C)(C)CC)CC2)OO1 (centres unmarked) [Trioxane 7bi]", "RECORDED_ENDPOINT": "% Suppression on Day 4", "NUMERIC_READOUT": 53.01}
{"COMPOUND": "C=C(c1ccc(C2CCCC2)cc1)C1COC2(CCC(C(C)(C)CC)CC2)OO1 (centres unmarked) [Trioxane 7ae]", "RECORDED_ENDPOINT": "% Suppression on Day 4", "NUMERIC_READOUT": 43.58}

* * *

% Suppression on Day 4: recorded values
System: multidrug resistant strain of Plasmodium yoelii Nigeriensis
Assay: Antimalarial activity against multidrug resistant P. yoelii in swiss mice
Assay type: in vivo
Settings: i.m., 96 mg/kg, 4 consecutive days (day 0-3), parasitaemia vs vehicle control
RECORDED_ENDPOINT: % Suppression on Day 4

{"COMPOUND": "C=C(c1ccc(C2CCCCC2)cc1)C1COC2(CC3CCC2C3)OO1 (stereo not shown)", "TARGET": "multidrug resistant strain of Plasmodium yoelii Nigeriensis", "RESULT": "100%"}
{"COMPOUND": "C=C(c1ccc(C2CCCC2)cc1)C1COC2(CCC(c3ccccc3)CC2)OO1 (stereo not shown)", "TARGET": "multidrug resistant strain of Plasmodium yoelii Nigeriensis", "RESULT": "77.56%"}
{"COMPOUND": "CCC1(C)OCC(C=Cc2ccc(C3CCCCC3)cc2)OO1 (stereo not shown)", "TARGET": "multidrug resistant strain of Plasmodium yoelii Nigeriensis", "RESULT": "71.26%"}
{"COMPOUND": "C(=CC1COC(c2ccccc2)OO1)c1ccc(C2CCCCC2)cc1 (stereo not shown)", "TARGET": "multidrug resistant strain of Plasmodium yoelii Nigeriensis", "RESULT": "41.98%"}
{"COMPOUND": "C=C(c1ccc(C2CCCCCC2)cc1)C1COC2(OO1)C1CC3CC(C1)CC2C3 (stereo not shown)", "TARGET": "multidrug resistant strain of Plasmodium yoelii Nigeriensis", "RESULT": "74.57%"}
{"COMPOUND": "C=C(c1ccc(-c2ccc(Br)cc2)cc1)C1COC2(CCC(c3ccccc3)CC2)OO1 (stereo not shown)", "TARGET": "multidrug resistant strain of Plasmodium yoelii Nigeriensis", "RESULT": "46.1%"}
{"COMPOUND": "C=C(c1ccc(-c2ccc(Cl)cc2)cc1)C1COC2(OO1)C1CC3CC(C1)CC2C3 (stereo not shown)", "TARGET": "multidrug resistant strain of Plasmodium yoelii Nigeriensis", "RESULT": "100%"}
{"COMPOUND": "C(=CC1COC2(CCCCC2)OO1)c1ccc(C2CCCCCCC2)cc1 (stereo not shown)", "TARGET": "multidrug resistant strain of Plasmodium yoelii Nigeriensis", "RESULT": "9.5%"}
{"COMPOUND": "C=C(c1ccc(C2CCCC2)cc1)C1COC2(OO1)C1CC3CC(C1)CC2C3 (stereo not shown)", "TARGET": "multidrug resistant strain of Plasmodium yoelii Nigeriensis", "RESULT": "81.23%"}
{"COMPOUND": "C=C(c1ccc(C2CCCC2)cc1)C1COC2(CC3CCC2C3)OO1 (stereo not shown)", "TARGET": "multidrug resistant strain of Plasmodium yoelii Nigeriensis", "RESULT": "81.23%"}
{"COMPOUND": "C=C(c1ccc(-c2ccccc2)cc1)C1COC2(CCC(c3ccccc3)CC2)OO1 (stereo not shown)", "TARGET": "multidrug resistant strain of Plasmodium yoelii Nigeriensis", "RESULT": "42.7%"}
{"COMPOUND": "C(=CC1COC2(CCCCC2)OO1)c1ccc(C2CCCC2)cc1 (stereo not shown)", "TARGET": "multidrug resistant strain of Plasmodium yoelii Nigeriensis", "RESULT": "84.94%"}
{"COMPOUND": "C(=CC1COC2(CCCCC2)OO1)c1ccc(C2CCCCCC2)cc1 (stereo not shown)", "TARGET": "multidrug resistant strain of Plasmodium yoelii Nigeriensis", "RESULT": "62.18%"}
{"COMPOUND": "C=C(c1ccc(-c2ccccc2)cc1)C1COC2(CC3CCC2C3)OO1 (stereo not shown)", "TARGET": "multidrug resistant strain of Plasmodium yoelii Nigeriensis", "RESULT": "100%"}
{"COMPOUND": "C=C(c1ccc(C2CCCCCCC2)cc1)C1COC2(CCC(C(C)(C)CC)CC2)OO1 (stereo not shown)", "TARGET": "multidrug resistant strain of Plasmodium yoelii Nigeriensis", "RESULT": "0%"}
{"COMPOUND": "C=C(c1ccc(-c2ccccc2)cc1)C1COC2(OO1)C1CC3CC(C1)CC2C3 (stereo not shown)", "TARGET": "multidrug resistant strain of Plasmodium yoelii Nigeriensis", "RESULT": "100%"}

* * *

Tested on: multidrug resistant strain of Plasmodium yoelii Nigeriensis
Assay: Antimalarial activity against multidrug resistant P. yoelii in swiss mice
Type: in vivo
Settings: Plasmodium yoelii, im, 672 h, i.m., 96 mg/kg, observed till day 28, read-out: Cured/treated (converted)
responders at 96 mg/kg: recorded values

{"MOLECULE": "C(=CC1COC2(CCCCC2)OO1)c1ccc(-c2ccccc2)cc1 (stereo not drawn)", "TARGET": "multidrug resistant strain of Plasmodium yoelii Nigeriensis", "responders at 96 mg/kg (%)": 0}
{"MOLECULE": "C(=CC1COC2(CCCCCC2)OO1)c1ccc(-c2ccccc2)cc1 (stereo not drawn)", "TARGET": "multidrug resistant strain of Plasmodium yoelii Nigeriensis", "responders at 96 mg/kg (%)": 0}
{"MOLECULE": "C(=CC1COC2(CCCC2)OO1)c1ccc(-c2ccccc2)cc1 (stereo not drawn)", "TARGET": "multidrug resistant strain of Plasmodium yoelii Nigeriensis", "responders at 96 mg/kg (%)": 100}
{"MOLECULE": "CC1(C)OCC(C=Cc2ccc(-c3ccc(Br)cc3)cc2)OO1 (stereo not drawn)", "TARGET": "multidrug resistant strain of Plasmodium yoelii Nigeriensis", "responders at 96 mg/kg (%)": 0}
{"MOLECULE": "Brc1ccc(-c2ccc(C=CC3COC4(CCCCC4)OO3)cc2)cc1 (stereo not drawn)", "TARGET": "multidrug resistant strain of Plasmodium yoelii Nigeriensis", "responders at 96 mg/kg (%)": 20}
{"MOLECULE": "Brc1ccc(-c2ccc(C=CC3COC4(CCCC4)OO3)cc2)cc1 (stereo not drawn)", "TARGET": "multidrug resistant strain of Plasmodium yoelii Nigeriensis", "responders at 96 mg/kg (%)": 0}

* * *

Test system: multidrug resistant strain of Plasmodium yoelii Nigeriensis
Experiment: Antimalarial activity against multidrug resistant P. yoelii in swiss mice
Type: in vivo
Settings: i.m., 96 mg/kg, 4 consecutive days (day 0-3), parasitaemia vs vehicle control
% Suppression on Day 4: recorded values

{"MOLECULE": "C=C(c1ccc(-c2ccc(Br)cc2)cc1)C1COC2(CC3CCC2C3)OO1 (centres unmarked) [Trioxane 8f]", "READOUT_UNITS": "%", "% Suppression on Day 4": 100}
{"MOLECULE": "C(=CC1COC2(CCCC2)OO1)c1ccc(C2CCCC2)cc1 (centres unmarked) [Trioxane 7aa]", "READOUT_UNITS": "%", "% Suppression on Day 4": 100}
{"MOLECULE": "C=C(c1ccc(C2CCCCCCC2)cc1)C1COC2(CCC(c3ccccc3)CC2)OO1 (centres unmarked) [Trioxane 7dd]", "READOUT_UNITS": "%", "% Suppression on Day 4": 73.81}
{"MOLECULE": "C(=CC1COC2(CCCCC2)OO1)c1ccc(C2CCCCC2)cc1 (centres unmarked) [Trioxane 7bd]", "READOUT_UNITS": "%", "% Suppression on Day 4": 71.73}
{"MOLECULE": "C=C(c1ccc(C2CCCCCC2)cc1)C1COC2(CC3CCC2C3)OO1 (centres unmarked) [Trioxane 8c]", "READOUT_UNITS": "%", "% Suppression on Day 4": 43.55}
